system: Hepatitis C virus NS3 helicase; test: blockers of NS3h binding to ssDNA – biochemical, fluorescence polarization, LOPAC1280 library, primary screen (AID 687035); conditions: Purified HCV NS3 helicase, Cy5-dT15 ssDNA binding fluorescence polarization; stronger effect = higher value; concentration not given here
Activity calls are given as the source filed them. No stated cut-off is given here; in the data, active means inhibition above about 37%; inactive means the rest.
Measured inhibition of individual entries

Please review the following examples before continuing.
C=C[C@H]1CN2CCC1C[C@H]2[C@H](O)c1ccnc2ccc(OC)cc12 (some centres not stated)    -2% (inactive)
Cn1c(=O)c2[nH]c(-c3ccccc3)nc2n(C)c1=O    -3% (inactive)
NOCC(=O)O    -1% (inactive)

Please find the next compound below.
inhibition reading for N.N.N.N.N.N.N.N.N.N.N.N.N.N.O.O.[Cl-].[Cl-].[Cl-].[Cl-].[Cl-].[Cl-].[Ru+4].[Ru+5].[Ru+5] : -98% (inactive)

Attribution: PubChem BioAssay
